- Test system: Plasmodium berghei
- assay-notes: Luciferase/luciferin-expressing antifolate-resistant parasites were used to infect a culture of HepG2 cells that were pre-incubated with compounds. Infected hepatocytes emit light due to the luciferase reaction. Assay results are presented as the percent inhibition of light emission compared to control. […]
- Assay type: functional
- assay-conditions: sporozoite, HEPG2TOX_HILL_SLOPE 8.58, HEPG2TOX_R_SQUARED 0.551, PBLUC_HILL_SLOPE 11.6, PBLUC_R_SQUARED 0.236, read-out: LUCIFERASE INFECTION ASSAY - IC50
pIC50: −log10 of the molar value.

{"item-smiles": "N#Cc1ccc(-c2cnc3ccc(NCc4ccc(S(N)(=O)=O)cc4)nn23)cc1", "pIC50": 5.52}

---

- System: Plasmodium berghei
- assay-notes: Luciferase/luciferin-expressing antifolate-resistant parasites were used to infect a culture of HepG2 cells that were pre-incubated with compounds. Infected hepatocytes emit light due to the luciferase reaction. Assay results are presented as the percent inhibition of light emission compared to control. […]
- Format: functional
- assay-conditions: sporozoite, HEPG2TOX_HILL_SLOPE 1.61, HEPG2TOX_R_SQUARED 0.823, PBLUC_HILL_SLOPE 0.454, PBLUC_R_SQUARED 0.451, read-out: LUCIFERASE INFECTION ASSAY - IC50

{"item-smiles": "O=c1c2ccccc2cnn1-c1nc2ccccc2[nH]1", "IC50 / µM": 4.95}

---

This section presents compounds with their documented IC90 values.
- System: Plasmodium berghei
- assay-notes: Luciferase/luciferin-expressing antifolate-resistant parasites were used to infect a culture of HepG2 cells that were pre-incubated with compounds. Infected hepatocytes emit light due to the luciferase reaction. Assay results are presented as the percent inhibition of light emission compared to control. […]
- Format: functional
- assay-conditions: sporozoite, read-out: LUCIFERASE INFECTION ASSAY - IC90

{"compound": "FC(F)(F)c1cc(N/N=C2/CCSc3sccc32)cc(C(F)(F)F)c1", "IC90": "> 8.33 µM"}
{"compound": "Cc1ccc(C2=NN(C(=O)c3ccccc3)C(c3ccccc3O)C2)cc1 (stereo unspecified)", "IC90": "8.37 µM"}
{"compound": "CNc1snc(C)c1C(=O)OCc1cc(C(=O)OC)c(C)o1", "IC90": "2.41 µM"}
{"compound": "Cc1ccc(-n2c(C)cc(C(=O)CSc3n[nH]c(=O)n3C3CC3)c2C)cc1C", "IC90": "> 10 µM"}
{"compound": "Cc1ccc2c(c1)/C(=N/Nc1nc3ccccc3s1)C(=O)N2", "IC90": "4.93 µM"}
{"compound": "O=C(CSc1nnc(Nc2ccccc2)s1)Nc1ccccc1N1CCCC1", "IC90": "> 10 µM"}
{"compound": "O=C(COC(=O)c1cc(-c2ccc(OC(F)F)cc2)nc2ccccc12)Nc1nnc(-c2ccccc2)o1", "IC90": "> 10 µM"}
{"compound": "CCn1cc(CN(C)C(=O)c2sc3cccc(Cl)c3c2Cl)c(C)n1", "IC90": "> 8.63 µM"}
{"compound": "Cc1cccn2c(C(=O)NC(C)C)c(NC(=O)c3cccc(C(F)(F)F)c3)nc12", "IC90": "> 8.16 µM"}
{"compound": "c1csc(-c2cnc3sc(NCC4CCOCC4)nn23)c1", "IC90": "> 10.3 µM"}
{"compound": "Cn1ncc2c(NCc3ccc(-c4ccc(Cl)cc4)o3)ncnc21", "IC90": "0.56 µM"}
